# credit: ChEMBL document CHEMBL1138039

ASSAY: Ratio of drug level in brain against plasma in rat after 1 hr
Type: ADME, organism-based
CONDITION LABEL: read-out: BBR
Each item that follows carries a reported Kp at 1 h.
Field format: numeric only.

Nc1nc(N)c(-c2ccc(NC(=O)C3CC3)cc2)c(COCc2ccccc2)n1; 0.26

Switching to the query record.
Exam item: # lookup: Kp at 1 h of Nc1nc(N)c(-c2ccc(NCc3ccc(Cl)cc3)cc2)c(COCc2ccccc2)n1
Marked response: 3.1
